target: mCB2 (Mus musculus); construct: host or cells: CHO-K1 beta-arrestin cells; assay: radioligand binding assay with [^3H]CP55940, mCB2
Endpoint Name: Ki

I'd like to know its Ki. The molecule in question is COc1ccc2ncc(NCCCc3nc(-c4ccc(F)cc4Cl)no3)cc2c1
241 nM

---

Biological target: hCB1 (Homo sapiens)
Construct: host or cells: CHO-K1 beta-arrestin cells
Sequence (P21554 whole entry): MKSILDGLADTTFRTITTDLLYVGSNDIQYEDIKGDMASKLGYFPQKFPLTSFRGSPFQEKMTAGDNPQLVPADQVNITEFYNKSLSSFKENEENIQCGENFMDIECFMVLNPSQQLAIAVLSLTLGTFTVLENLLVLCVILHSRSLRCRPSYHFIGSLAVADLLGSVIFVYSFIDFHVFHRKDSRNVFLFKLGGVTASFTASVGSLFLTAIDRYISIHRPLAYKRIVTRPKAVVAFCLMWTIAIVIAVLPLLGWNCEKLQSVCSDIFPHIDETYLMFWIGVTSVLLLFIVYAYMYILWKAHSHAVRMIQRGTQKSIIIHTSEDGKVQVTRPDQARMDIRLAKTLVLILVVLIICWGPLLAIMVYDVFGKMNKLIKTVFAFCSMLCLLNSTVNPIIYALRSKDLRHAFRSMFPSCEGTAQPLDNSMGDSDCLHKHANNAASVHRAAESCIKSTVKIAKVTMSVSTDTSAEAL
Assay: radioligand binding assay with [^3H]CP55940, hCB1
Conditions: selectivity
Experimental: CHO-K1 beta-arrestin cells (DiscoveRx, Fremont, CA) expressing hCB2, mouse CB2 (mCB2), and human CB1 (hCB1) were cultured in F-12 Nutrient Mixture (HAM) supplemented with 10% fetal bovine serum (FBS), 300 μg/mL hygromycin and 800 μg/mL geneticin (G418). Cells were incubated in a humidified atmosphere at 37°C with 5% CO2. […]
Endpoint Name: Ki ratio hCB1/hCB2
Form rule: numeric answer, no unit written next to it.

The following compounds have reported results that may help.
- Compound: "FCCOc1ccc2ncc(NCCCc3nc(-c4ccc(F)cc4Cl)no3)cc2c1 [MA3]"
  Ki ratio hCB1/hCB2: 127
- Compound: "COc1ccc2ncc(NCCCc3nc(-c4ccc(F)cc4Cl)no3)cc2c1 [MA2]"
  Ki ratio hCB1/hCB2: 19
- Compound: "CCCCOc1c(OC)ccc2cc(C(=O)NC3CCCCC3)c(=O)[nH]c12 [NE40, reference compound]"
  Ki ratio hCB1/hCB2: 241

For the next question, use this compound.
I'd like to know its Ki ratio hCB1/hCB2. The compound in question is Fc1ccc(-c2noc(CCCNc3cnc4ccc(OC(F)(F)F)cc4c3)n2)c(Cl)c1 [Compound 12, reference compound]
202

---

Biological target: mCB2 (Mus musculus, UniProt P47936)
Construct: host or cells: CHO-K1 beta-arrestin cells
Sequence (P47936 whole entry): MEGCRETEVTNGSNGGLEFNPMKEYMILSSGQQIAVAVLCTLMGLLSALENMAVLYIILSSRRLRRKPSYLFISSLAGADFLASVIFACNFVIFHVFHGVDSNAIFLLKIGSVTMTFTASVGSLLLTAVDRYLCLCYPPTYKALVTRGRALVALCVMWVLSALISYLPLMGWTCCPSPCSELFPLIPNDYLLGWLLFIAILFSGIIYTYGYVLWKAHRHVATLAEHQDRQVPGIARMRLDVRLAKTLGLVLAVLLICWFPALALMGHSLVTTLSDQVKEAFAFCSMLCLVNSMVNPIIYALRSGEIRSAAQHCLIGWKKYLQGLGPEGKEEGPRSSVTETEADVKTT
Assay: functional cAMP assay, mCB2
Type: cell-based
Details: CHO-K1 cells expressing mCB2; read-out: mCB2 cAMP EC50
Procedure: CHO-K1 beta-arrestin cells (DiscoveRx, Fremont, CA) expressing hCB2, mouse CB2 (mCB2), and human CB1 (hCB1) were cultured in F-12 Nutrient Mixture (HAM) supplemented with 10% fetal bovine serum (FBS), 300 μg/mL hygromycin and 800 μg/mL geneticin (G418). Cells were incubated in a humidified atmosphere at 37°C with 5% CO2. cAMP was measured using cAMP-Nano-TRF detection kit (Roche Diagnostics, Penzberg, Germany). […]
# EC50 listing for each entry below
Write it as a number; the unit pM goes unstated.

- Molecule: "Fc1ccc(-c2noc(CCCNc3cnc4ccc(OC(F)(F)F)cc4c3)n2)c(Cl)c1 [Compound 12, reference compound]"
  Assayed System: "mCB2 (Mus musculus, UniProt P47936)"
  Experimental Result: 180
- Molecule: "FCCOc1ccc2ncc(NCCCc3nc(-c4ccc(F)cc4Cl)no3)cc2c1"
  Assayed System: "mCB2 (Mus musculus, UniProt P47936)"
  Experimental Result: 90

For the next question, use this molecule.
I'd like to know its EC50. The molecule in question is CCCCOc1c(OC)ccc2cc(C(=O)NC3CCCCC3)c(=O)[nH]c12 [NE40, reference compound]
11000

---

target: hCB2 (Homo sapiens, UniProt P34972); construct: host or cells: CHO-K1 beta-arrestin cells; experiment: radioligand binding assay with [^3H]CP55940, hCB2; details: competition with [^3H]CP55940; read-out: hCB2 Ki
Sequence (P34972 whole entry): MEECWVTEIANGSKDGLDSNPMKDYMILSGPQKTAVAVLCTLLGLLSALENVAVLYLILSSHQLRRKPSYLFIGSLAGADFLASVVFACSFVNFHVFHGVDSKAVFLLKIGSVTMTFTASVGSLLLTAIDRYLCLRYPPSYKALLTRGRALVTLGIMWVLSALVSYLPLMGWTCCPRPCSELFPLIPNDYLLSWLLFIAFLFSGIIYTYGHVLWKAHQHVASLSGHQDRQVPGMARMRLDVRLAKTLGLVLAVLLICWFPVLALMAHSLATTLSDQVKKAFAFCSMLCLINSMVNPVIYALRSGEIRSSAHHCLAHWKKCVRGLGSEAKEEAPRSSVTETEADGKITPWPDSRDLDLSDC
# Ki listing for each entry below
Write it as a number; the unit nM goes unstated.

The following compounds have reported results that may help.
- Compound: "Fc1ccc(-c2noc(CCCNc3cnc4ccc(OC(F)(F)F)cc4c3)n2)c(Cl)c1 [Compound 12, reference compound]"
  Experimental Result: 2.8
- Compound: "FCCOc1ccc2ncc(NCCCc3nc(-c4ccc(F)cc4Cl)no3)cc2c1"
  Experimental Result: 0.8

For the next question, use this compound.
I'd like to know its Ki. The compound in question is CCCCOc1c(OC)ccc2cc(C(=O)NC3CCCCC3)c(=O)[nH]c12 [NE40, reference compound]
4
